Measured values drawn from paper PMC7377239 for this set.

Kindly state activity at 100 µM for each of the entries shown.
- System: HUVECs
- TEST_DETAILS: Tube formation (tubulogenesis) assay in HUVECs, 18 h
- Assay type: cell-based, human
- APPLIED_CONDITIONS: Homo sapiens, HUVEC, 18 h, HUVECs, 100.00 µM, 0.00 µM = 100.00, read-out: huvec.mtl.18hr
Where a name gives a salt, the structure may show the parent alone.

Worked cases, activity at 100 µM given:
COMPOUND	activity at 100 µM
O=S(=O)(O)Oc1ccc(-c2cccc(Cl)c2)cc1Cl [4-yl PCB 11 sulfate]	52.2%
Clc1cccc(-c2cccc(Cl)c2)c1 [PCB11]	81.4%
Oc1cc(Cl)c(-c2cc(Cl)ccc2Cl)cc1Cl [4-OH PCB52]	69.6%

# return activity at 100 µM for each item in the list
1. O=S(=O)(O)Oc1cc(Cl)c(-c2cc(Cl)ccc2Cl)cc1Cl [4-yl PCB 52 sulfate]
2. Oc1ccc(O)c(-c2ccc(Cl)cc2)c1 [2',5'-DiOH PCB3]
3. Clc1ccc(-c2ccccc2)cc1 [PCB3]
4. Oc1ccccc1-c1ccc(Cl)cc1 [2'-OH PCB3]

61.8%
57.8%
70.8%
73.9%
